- EXPERIMENTAL_SYSTEM: GSK3β (h) (Homo sapiens)
- Sequence (P49841 whole entry): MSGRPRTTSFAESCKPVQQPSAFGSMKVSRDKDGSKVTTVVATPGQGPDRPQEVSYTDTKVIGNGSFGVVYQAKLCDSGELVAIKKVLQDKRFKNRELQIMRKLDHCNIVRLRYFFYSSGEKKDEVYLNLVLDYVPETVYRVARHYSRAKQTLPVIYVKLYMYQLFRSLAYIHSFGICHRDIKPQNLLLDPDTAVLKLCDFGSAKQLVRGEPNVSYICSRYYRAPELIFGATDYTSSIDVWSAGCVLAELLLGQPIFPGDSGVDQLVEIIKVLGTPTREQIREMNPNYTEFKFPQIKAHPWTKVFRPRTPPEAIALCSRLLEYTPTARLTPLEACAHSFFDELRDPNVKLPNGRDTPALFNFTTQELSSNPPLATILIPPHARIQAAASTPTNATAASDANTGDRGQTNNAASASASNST
- TEST: GSK-3β human kinase assay (SPA)
- Type: biochemical
- PARTICULARS: read-out: GSK3B pIC50 (converted)
OBSERVABLE: IC50 (nM)

INSERT INTO results (smiles_data, output_unit, measured_value) VALUES
  ('COc1ccc2cc1OCCCCCC(=O)N(C)CCCN(C)c1ncnc3c1/C(=C/N2)C(=O)N3', 'nM', 372);

1: CN1CCNc2ncnc3c2/C(=C/Nc2ccc(Cl)c(c2)OCCCCCC1=O)C(=O)N3
2: CN1CCCC(=O)N(C)CCNc2ncnc3c2/C(=C/Nc2cccc(c2)C1)C(=O)N3
3: COCCN1CCCOc2cc(ccc2OC)N/C=C2\C(=O)Nc3ncnc(c32)NCCNC(=O)C1
4: COCCN1CCOc2cc(ccc2Cl)N/C=C2\C(=O)Nc3ncnc(c32)NCCCN(C)C(=O)C1
5: COc1ccc2cc1OCCCCCCC(=O)N(C)CCCNc1ncnc3c1/C(=C/N2)C(=O)N3
Input: Sort ascending by IC50. Answer format: list of labels, ordered as asked.
Output: 4, 1, 5, 2, 3
(4: 93.3 nM, 1: 263 nM, 5: 575 nM, 2: 1050 nM, 3: 4680 nM)

* * *

- EXPERIMENTAL_SYSTEM: CDK1/CyclinB (h) (Homo sapiens, UniProt P06493)
- Sequence (P06493 whole entry): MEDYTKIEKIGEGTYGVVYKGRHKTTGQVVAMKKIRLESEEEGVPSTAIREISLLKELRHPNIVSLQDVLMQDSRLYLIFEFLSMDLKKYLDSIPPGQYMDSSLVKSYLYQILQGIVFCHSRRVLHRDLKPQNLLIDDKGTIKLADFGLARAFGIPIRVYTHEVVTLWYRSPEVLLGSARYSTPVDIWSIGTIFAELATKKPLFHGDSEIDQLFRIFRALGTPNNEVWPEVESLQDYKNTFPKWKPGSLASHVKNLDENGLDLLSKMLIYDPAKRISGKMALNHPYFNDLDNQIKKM
- Sequence (P14635 whole entry partner): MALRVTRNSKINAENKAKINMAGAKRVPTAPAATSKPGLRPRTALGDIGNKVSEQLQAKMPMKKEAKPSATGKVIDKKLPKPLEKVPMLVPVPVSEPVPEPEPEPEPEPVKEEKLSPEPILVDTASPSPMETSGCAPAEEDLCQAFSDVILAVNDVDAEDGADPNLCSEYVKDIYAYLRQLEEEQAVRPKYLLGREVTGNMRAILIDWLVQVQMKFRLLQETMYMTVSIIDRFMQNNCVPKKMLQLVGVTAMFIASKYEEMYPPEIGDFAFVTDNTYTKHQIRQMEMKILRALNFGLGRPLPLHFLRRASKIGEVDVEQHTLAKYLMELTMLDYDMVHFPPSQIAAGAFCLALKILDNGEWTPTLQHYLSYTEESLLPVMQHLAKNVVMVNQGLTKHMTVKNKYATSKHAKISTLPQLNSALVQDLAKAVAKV
- TEST: CDK1/CyclinB human kinase assay (FRET)
- Assay type: biochemical
OBSERVABLE: CDK1 pIC50
Give the figure only, with no unit attached.

Completed entries (count: 10):
INSERT INTO results (compound, experimental_system, measured_value) VALUES
  ('CN1CCN(c2ccc3cc2OCCCCCC(=O)N(C)CCCNc2ncnc4c2C(=CN3)C(=O)N4)CC1 (mixture of isomers)', 'CDK1/CyclinB (h) (Homo sapiens, UniProt P06493)', 5.8),
  ('CN1CCN(c2ccc3cc2OCCCCC(=O)N(C)CCCNc2ncnc4c2C(=CN3)C(=O)N4)CC1 (mixture of isomers)', 'CDK1/CyclinB (h) (Homo sapiens, UniProt P06493)', 5.88),
  ('COc1cc2cc(c1OC)OCCCC(=O)NCCCNc1ncnc3c1C(=CN2)C(=O)N3 (mixture of isomers)', 'CDK1/CyclinB (h) (Homo sapiens, UniProt P06493)', 6.91),
  ('COc1ccc2cc1OCCCC(=O)N(C(C)C)CCCCN(C)c1ncnc3c1C(=CN2)C(=O)N3 (mixture of isomers)', 'CDK1/CyclinB (h) (Homo sapiens, UniProt P06493)', 5.14),
  ('COc1ccc2cc1OCCCC(=O)N(C(C)C)CCCNc1ncnc3c1C(=CN2)C(=O)N3 (mixture of isomers)', 'CDK1/CyclinB (h) (Homo sapiens, UniProt P06493)', 6.12),
  ('CN1CCN(c2ccc3cc2OCCCC(=O)N(C)CCNc2ncnc4c2C(=CN3)C(=O)N4)CC1 (mixture of isomers)', 'CDK1/CyclinB (h) (Homo sapiens, UniProt P06493)', 5.83),
  ('CN1CCCNc2ncnc3c2C(=CNc2ccc(N4CCOCC4)c(c2)OCCCCCC1=O)C(=O)N3 (mixture of isomers)', 'CDK1/CyclinB (h) (Homo sapiens, UniProt P06493)', 5.86),
  ('COc1ccc2cc1OCCCC(=O)NCCCNc1ncnc3c1C(=CN2)C(=O)N3 (mixture of isomers)', 'CDK1/CyclinB (h) (Homo sapiens, UniProt P06493)', 7.21),
  ('COc1cc2cc(c1OC)OCCCCC(=O)N(C)CCCNc1ncnc3c1C(=CN2)C(=O)N3 (mixture of isomers)', 'CDK1/CyclinB (h) (Homo sapiens, UniProt P06493)', 5.68),
  ('CN1CCCNc2ncnc3c2C(=CNc2cccc(c2)OCCCCC1=O)C(=O)N3 (mixture of isomers)', 'CDK1/CyclinB (h) (Homo sapiens, UniProt P06493)', 5.61);

Input: Given CN1CCN(c2ccc3cc2OCCCC(=O)N(C)CCCNc2ncnc4c2C(=CN3)C(=O)N4)CC1 (mixture of isomers) , report its CDK1 pIC50 on CDK1/CyclinB (h) (Homo sapiens, UniProt P06493).
Output: 6.8

Input: Given CN1CCCNc2ncnc3c2C(=CNc2ccc(N4CCOCC4)c(c2)OCCCC1=O)C(=O)N3 (mixture of isomers) , report its CDK1 pIC50 on CDK1/CyclinB (h) (Homo sapiens, UniProt P06493).
Output: 7.53

Input: Given CN1CCNc2ncnc3c2C(=CNc2cccc(c2)OCCCC1=O)C(=O)N3 (mixture of isomers) , report its CDK1 pIC50 on CDK1/CyclinB (h) (Homo sapiens, UniProt P06493).
Output: 6.16

Input: Given CN1CCCNc2ncnc3c2C(=CNc2cccc(c2)OCCCC1=O)C(=O)N3 (mixture of isomers) , report its CDK1 pIC50 on CDK1/CyclinB (h) (Homo sapiens, UniProt P06493).
Output: 6.56

Input: Given CN1CCCNc2ncnc3c2C(=CNc2ccc(N4CCOCC4)c(c2)OCCCCC1=O)C(=O)N3 (mixture of isomers) , report its CDK1 pIC50 on CDK1/CyclinB (h) (Homo sapiens, UniProt P06493).
Output: 6.24
